Test system: H929 multiple myeloma tumour line
Test: In vitro cytotoxicity, Microculture Tetrazolium Assay
Assay type: cell-based
Settings: Homo sapiens, NCI-H929, 48 h, H929 cells, 48 hours exposure, MTT; read-out: IC50 (μM) MTT H929
REPORTED_PROPERTY: IC50 (µM)

• COc1ccccc1CC(Oc1ncnc2sc(-c3ccco3)c(-c3ccc(OCCN4CCN(Cc5ccccc5)CC4)c(Cl)c3C)c12)C(=O)O (stereo not shown) = 3.31
• Cc1c(-c2c(-c3ccc(F)cc3)sc3ncnc(OC(Cc4ccccc4OCc4ccnn4CC(F)(F)F)C(=O)O)c23)ccc(OCCN(C)C)c1Cl (stereo not shown) = 0.102
• CCc1sc2ncnc(OC(Cc3ccccc3)C(=O)O)c2c1-c1ccc(OCCn2ccnc2)c(Cl)c1C (stereo not shown) = 13.3
• Cc1c(-c2c(-c3ccc(F)nc3)sc3ncnc(OC(Cc4ccccc4OCc4ccnn4CC(F)(F)F)C(=O)O)c23)ccc(OCCN2CCN(C)CC2)c1Cl (stereo not shown) = 0.101
